assay: Metabolic stability test: liver microsomal stability assay; format: in vitro ADME, mouse; settings: mouse liver microsomes 0.5 mg protein/mL, compound 1 µM, absence of NADPH
Starred links: 1 amine or outer side, 2 acyl side, 3 side chain; linkers in the order of their positions; H or OH if unused. Positions of bridges follow the written chain, without caps; N, C: chain ends. Non-standard residues stand in square brackets, D forms with d. Residues, ends and D or L forms follow the SMILES beside them. *: point of attachment. NMedβ3hAla = C[C@H](CC(=O)[*:2])N(C)[*:1]; NMeF = CN[C@@H](Cc1ccccc1)C(=O)O; NMeβAla = CN(CCC(=O)[*:2])[*:1]; NMeL = CN[C@@H](CC(C)C)C(=O)O; NMeAbu = CC[C@H](NC)C(=O)O; NMeA = CN[C@@H](C)C(=O)O; Piperidide = C1CCN(*)CC1; Abu = CC[C@H](N)C(=O)O; Sar = CNCC(=O)O; tBu = CC(C)(C)*
metric_name: Mouse Hepatic Microsome CLh,int NADPH(-) (µL/min/mg Protein)
Note: unit µL/min/mg Protein is implicit; provide only the numeric part.

INSERT INTO assay_data (molecule, uom, assay_result) VALUES
  ('CC[C@@H]1NC(=O)[C@H](Cc2ccccc2)N(C)C(=O)[C@@H]2CCCN2C(=O)[C@H](CC(C)C)N(C)C(=O)[C@H](CC)NC(=O)[C@H](C(C)C)NC(=O)[C@H](CC(C)C)N(C)C(=O)[C@H]([C@@H](C)O)NC(=O)[C@H](Cc2ccccc2)N(C)C(=O)CN(C)C(=O)C[C@@H](C)N(C)C(=O)[C@H](C(C)C)NC(=O)[C@H](CC)N(C)C(=O)[C@H](C)N(C)C1=O [pd070] (cyclo([Abu][NMeA][NMeAbu]V[NMedβ3hAla][Sar][NMeF]T[NMeL]V[Abu][NMeL]P[NMeF]))', 'µL/min/mg Protein', 14.6);

[Q] Tell me the measured Mouse Hepatic Microsome CLh,int NADPH(-) of CC[C@H](C)[C@@H]1NC(=O)[C@H](C)N(C)C(=O)[C@H]([C@@H](C)O)NC(=O)[C@H](Cc2ccccc2)N(C)C(=O)[C@H](COC(C)(C)C)NC(=O)[C@H](CC(C)C)N(C)C(=O)CN(C)C(=O)[C@H](Cc2ccccc2)N(C)C(=O)[C@H]([C@@H](C)CC)NC(=O)[C@H](CC(C)C)N(C)C(=O)CCN(C)C(=O)C[C@@H](C(=O)N2CCCCC2)NC(=O)[C@H](CC(C)C)N(C)C1=O [pd110] ([NMeβAla][NMeL]I[NMeF][Sar][NMeL]S(tBu)[NMeF]T[NMeA]I[NMeL]D-Piperidide; lactam N-13) , please.
[A] 30.5

====

experiment: Metabolic stability test: liver microsomal stability assay; assay type: in vitro ADME, mouse; details: male, pH 7.4; mouse liver microsomes 0.5 mg protein/mL, compound 1 µM, presence of NADPH; read-out: Mouse Hepatic Microsome CLh,int NADPH(+)
Starred links: 1 amine or outer side, 2 acyl side, 3 side chain; linkers in the order of their positions; H or OH if unused. Positions of bridges follow the written chain, without caps; N, C: chain ends. Non-standard residues stand in square brackets, D forms with d. Residues, ends and D or L forms follow the SMILES beside them. *: point of attachment. NMeF = CN[C@@H](Cc1ccccc1)C(=O)O; NMeI = CC[C@H](C)[C@H](NC)C(=O)O; NMeβAla = CN(CCC(=O)[*:2])[*:1]; NMeL = CN[C@@H](CC(C)C)C(=O)O; d(β3hA) = C[C@@H](N)CC(=O)O; NMeA = CN[C@@H](C)C(=O)O; Piperidide = C1CCN(*)CC1; βAla = NCCC(=O)O; Sar = CNCC(=O)O; tBu = CC(C)(C)*
Quick reference: microsomal CLint at 1 µM of the listed items.
Note: unit µL/min/mg is implicit; provide only the numeric part.

INSERT INTO measurements (compound, assay_result) VALUES
  ('CC[C@H](C)[C@H]1C(=O)N[C@@H]([C@@H](C)O)C(=O)N(C)CC(=O)N(C)[C@@H](CC(C)C)C(=O)N[C@@H](CC(C)C)C(=O)N[C@H](C)CC(=O)N(C)[C@@H](C)C(=O)N[C@@H](CC(C)C)C(=O)N(C)[C@@H](C)C(=O)N(C)[C@@H](CC(C)C)C(=O)N[C@@H](COC(C)(C)C)C(=O)N(C)[C@@H](Cc2ccccc2)C(=O)N[C@@H](C(C)C)C(=O)N(C)[C@@H](CC(C)C)C(=O)N1C [pd052] (cyclo(L[NMeA][NMeL]S(tBu)[NMeF]V[NMeL][NMeI]T[Sar][NMeL]L[d(β3hA)][NMeA]))', 28);

[Q] Tell me the measured microsomal CLint at 1 µM of CC[C@H](C)[C@H]1C(=O)N[C@@H]([C@@H](C)O)C(=O)N(C)CC(=O)N(C)[C@@H](CC(C)C)C(=O)N[C@@H](CC(C)C)C(=O)N[C@H](C(=O)N2CCCCC2)CC(=O)N(C)[C@@H](C)C(=O)N[C@@H](CC(C)C)C(=O)N(C)[C@@H](CC(C)C)C(=O)N(C)CCC(=O)N(C)[C@@H](Cc2ccccc2)C(=O)NCCC(=O)N(C)[C@@H](Cc2ccccc2)C(=O)N1C [pd113] ([NMeA]L[NMeL][NMeβAla][NMeF][βAla][NMeF][NMeI]T[Sar][NMeL]LD-Piperidide; lactam N-13) , please.
[A] 24.4

These entries and their values trace back to patent EP4768499A1.
